The entries below come with measured log p values attached.
experiment: logP by LC-MS, method [b], acidic range pH 2.7; type: physicochemical; details: pH 2.7

input: Need log p of "CC(C)c1ccc(Nc2ncc(Br)c(NC3CCC3)n2)cc1" , thanks.
output: 3.13[b]

input: Need log p of "Clc1cnc(Nc2ccc(NC3CC3)cc2)nc1NC1CCC1" , thanks.
output: 0.71[b]

More entries:
input: Need log p of "CC(=O)N1CCc2ccc(Nc3ncc(Br)c(NC4CCC4)n3)cc21" , thanks.
output: 1.78[b]

###

The entries below come with measured log p values attached.
experiment: logP by LC-MS, method [b], acidic range pH 2.7; assay type: physicochemical; conditions: pH 2.7

input: Need log p of CC(C)(CF)C(=O)Nc1cccc(Nc2ncc(Cl)c(NC3CCC3)n2)c1 [Compound 141] , thanks.
output: 1.97[b]

input: Need log p of CCOC(=O)Nc1cccc(Nc2ncc(Cl)c(NC3CCC3)n2)c1 [Compound 137] , thanks.
output: 1.94[b]

input: Need log p of CCN(C(C)=O)c1ccc(Nc2ncc(Cl)c(NC3CCC3)n2)cc1 [Compound 119] , thanks.
output: 1.83[b]

input: Need log p of CN1CCN(c2cccc(Nc3ncc(Br)c(NC4CCC4)n3)c2)C1=O [Compound 59] , thanks.
output: 1.79[b]

input: Need log p of CNS(=O)(=O)Cc1ccc(Nc2ncc(Br)c(NC3CCC3)n2)cc1 [Compound 86] , thanks.
output: 1.71[b]

input: Need log p of CC(C)(C)C(=O)Nc1ccc(Nc2ncc(Br)c(NC3CCC3)n2)cc1 [Compound 92] , thanks.
output: 2.02[b]

input: Need log p of Cc1cc(C)c(C)c(Nc2ncc(Br)c(NC3CCC3)n2)c1 [Compound 61] , thanks.
output: 2.57[b]

input: Need log p of CS(=O)(=O)Nc1cccc(Nc2ncc(Br)c(NC3CCC3)n2)c1 [Compound 87] , thanks.
output: 1.73[b]

More entries:
input: Need log p of O=C1NC(=O)C(c2ccc(Nc3ncc(Cl)c(NC4CCC4)n3)cc2)N1 (stereo not drawn) [compound 134] , thanks.
output: 1.33[b]

input: Need log p of CC(=O)c1ccc(Nc2ncc(Cl)c(NC3CCC3)n2)cc1 [compound 131] , thanks.
output: 2.26[b]

input: Need log p of O=C1NC(=O)C(c2ccc(Nc3ncc(Br)c(NC4CCC4)n3)cc2)N1 (stereo not drawn) [Compound 187] , thanks.
output: 1.24[b]

input: Need log p of CC(C)(C)C(=O)Nc1cccc(Nc2ncc(Br)c(NC3CCC3)n2)c1 [Compound 99] , thanks.
output: 2.11[b]

input: Need log p of CCCCC(=O)Oc1ccc(Nc2ncc(Br)c(NC3CCC3)n2)cc1 [compound 161] , thanks.
output: 4.32[b]

input: Need log p of N#CCc1cccc(Nc2ncc(C(F)(F)F)c(NC3CCC3)n2)c1 [Compound 226] , thanks.
output: 3.01[b]

input: Need log p of CCN(CC)C(=O)c1cccc(Nc2ncc(Br)c(NC3CCC3)n2)c1 [Compound 252] , thanks.
output: 2.26[b]

input: Need log p of CC(C)c1cccc(Nc2ncc(Br)c(NC3CCC3)n2)c1 [Compound 205] , thanks.
output: 3.21[b]

input: Need log p of N#CCc1cccc(Nc2ncc(Br)c(NC3CCC3)n2)c1 [Compound 220] , thanks.
output: 2.12[b]

input: Need log p of COCc1cccc(Nc2ncc(Cl)c(NC3CCC3)n2)c1 [Compound 42] , thanks.
output: 2.05[b]

input: Need log p of COc1cccc(Nc2ncc(Cl)c(NC3CCC3)n2)c1 [Compound 109] , thanks.
output: 2.06[b]
